The reported measurements were obtained from ChEMBL document CHEMBL5604063.

Known IC50 of a selection of molecules
# measured-target: Genome polyprotein (dengue virus type 2, UniProt P29990)
# Sequence (P29990 1346-1475 limits assumed): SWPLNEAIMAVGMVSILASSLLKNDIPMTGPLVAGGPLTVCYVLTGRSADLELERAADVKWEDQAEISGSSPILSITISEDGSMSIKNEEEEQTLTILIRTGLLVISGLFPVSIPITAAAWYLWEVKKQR
# Sequence (P29990 1476-2093 limits assumed): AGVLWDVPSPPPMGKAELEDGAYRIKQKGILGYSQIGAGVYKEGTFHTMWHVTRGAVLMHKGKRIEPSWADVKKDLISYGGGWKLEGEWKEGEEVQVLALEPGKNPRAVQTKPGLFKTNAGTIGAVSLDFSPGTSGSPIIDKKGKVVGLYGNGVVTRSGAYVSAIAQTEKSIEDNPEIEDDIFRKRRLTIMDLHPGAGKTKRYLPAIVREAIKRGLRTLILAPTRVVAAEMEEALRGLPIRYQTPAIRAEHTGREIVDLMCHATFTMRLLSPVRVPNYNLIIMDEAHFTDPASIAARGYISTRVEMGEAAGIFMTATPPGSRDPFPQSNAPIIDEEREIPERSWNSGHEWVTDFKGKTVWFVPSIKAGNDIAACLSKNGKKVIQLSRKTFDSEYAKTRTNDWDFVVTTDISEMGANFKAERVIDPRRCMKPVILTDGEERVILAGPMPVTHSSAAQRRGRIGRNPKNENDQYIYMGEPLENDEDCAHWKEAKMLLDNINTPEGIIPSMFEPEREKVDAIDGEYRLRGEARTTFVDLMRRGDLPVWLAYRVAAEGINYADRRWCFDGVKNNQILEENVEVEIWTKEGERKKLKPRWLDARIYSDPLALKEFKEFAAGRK
# Format: functional, Thailand/16681/1984
quantity-kind: IC50

line-notation	obs-value
NC1CN(c2ccc(NS(=O)(=O)c3ccc(Oc4ccccc4Cl)cc3)cn2)C1	> 100 µM
Cc1ccc(NC(=O)c2cc(Cl)cc3[nH]ncc23)cc1N	> 100 µM
Cc1oc2nc(-c3cc(Cl)cc(NC(=O)OCc4ccccc4)c3)ccc2c1C(=O)O	13.7 µM
O=C(Nc1ccc2c(c1)CNC2)c1cc(Cl)cc2cn[nH]c12	> 100 µM
NCc1cccc(NC(=O)[C@H](NC(=O)OCc2ccccc2)c2ccc(OCCc3cscn3)cc2)c1	> 100 µM
NCc1cccc(NC(=O)c2cc3c(F)cc(F)c(F)c3[nH]2)c1	> 100 µM
NCc1cccc(CNC(=O)[C@H]2[C@H]3CCCCC[C@H]3[C@H]2NC(=O)OCc2ccccc2)c1	80.3 µM
Cn1cncc1COc1cccc([C@H](NC(=O)OCc2ccccc2)C(=O)Nc2cccc(CN)c2)c1	> 100 µM
Cc1ccc(S(=O)(=O)N2Cc3ccccc3C[C@@H](C(=O)Nc3cccc(CN)c3)C2)cc1	> 100 µM
O=C(Nc1ccc2c(c1)CNC2)c1cc(F)cc(-c2ccnc3c2CCO3)c1	> 100 µM

* * *

# measured-target: UniProt P29990
# Format: functional, Thailand/16681/1984
pIC50: −log10 of the molar value.
Known pIC50 of a selection of compounds
quantity-kind: pIC50

line-notation	quantity-kind	obs-value
CC(C)N1C(=O)C[C@H](C(=O)Nc2cccc(CN)c2)[C@H]1c1ccc(Cl)c(F)c1	pIC50	< 4.00
COc1cc(COc2cncc3ccccc23)nc(N2CCNCC2)n1	pIC50	< 4.00
CCOc1cccc(-c2ccc(S(=O)(=O)Nc3ccc(Cl)cc3C(=O)O)cc2C)c1	pIC50	5.15
C=CC[C@H]1NCc2cc(NCc3cc(Cl)cc4[nH]ncc34)ccc21	pIC50	< 4.00
O=C(Nc1cc(Cl)cc(C(=O)Nc2cc(Br)cc(-c3nnn[nH]3)c2)c1)OCc1ccccc1	pIC50	5.23
Cc1cnccc1-c1cc(NC(=O)c2cc(F)cc3[nH]ncc23)cc2c1CNC2	pIC50	< 4.00
O=C(N[C@H]1CCNC1=O)c1cc(Cl)ccc1NS(=O)(=O)c1ccc(Oc2ccccc2Cl)cc1	pIC50	4.06
Cn1nc([C@H](C#N)Nc2cccc([C@H]3CCOC3)c2)cc1C1CC1	pIC50	< 4.00
CCn1c(=O)c(N2C[C@H]3C[C@H]2CS(=O)(=O)C3)nc2ccccc21	pIC50	< 4.00
NCc1cccc(NC(=O)[C@@H]2CCCCN2)c1	pIC50	< 4.00
O=C(O)c1cc(Cl)ccc1CS(=O)(=O)c1ccc(Oc2ccccc2Cl)cc1	pIC50	< 4.00
NCc1cccc(NC(=O)[C@@H](NC(=O)OCc2ccccc2)c2ccc(OCC3CCOCC3)cc2)c1	pIC50	4.07
NCc1cccc(NC(=O)[C@H]2c3ccc(Br)cc3OCCN2C(=O)OCc2ccccc2)c1	pIC50	< 4.00
NCc1cccc(NC(=O)c2nn(-c3ccc(Cl)c(F)c3)c3c2CCC3)c1	pIC50	4.14
O=C(Nc1ccc2c(c1)CNC2)c1cc(Cl)cc2cc[nH]c12	pIC50	< 4.00
Cc1cc(C(=O)Nc2ccc3c(c2)CNC3)c2cn[nH]c2c1	pIC50	< 4.00
Cc1c(C(=O)Nc2cc(C(=O)N3CC[C@H](C(N)=O)C3)ccn2)cc(C2CC2)n1C	pIC50	< 4.00
O=C(O)c1cc(Cl)ccc1NS(=O)(=O)c1ccc(OCc2nnnn2C2CCC2)cc1	pIC50	< 4.00
CC(C)(C)Cn1c(=O)[nH]c2cccc(C(=O)Nc3cccc(CN)c3)c21	pIC50	< 4.00
O=C(Nc1nc(O)c2c(n1)CNC2)c1cc(Cl)cc2[nH]ncc12	pIC50	< 4.00
CCn1cc(-c2ccnc(N(C)C)c2)nc(N2CC[C@@H](CO)C2)c1=O	pIC50	< 4.00

* * *

Known pIC50 of a selection of compounds
# measured-target: Genome polyprotein (dengue virus type 2, UniProt P29990)
# Format: functional, Thailand/16681/1984
pIC50: −log10 of the molar value.
quantity-kind: pIC50

line-notation	measured-target	quantity-kind	obs-value
O=C(Nc1ccc2c(c1)CN[C@H]2C[C@H](O)CO)c1cc(Cl)cc2[nH]ncc12	Genome polyprotein (dengue virus type 2, UniProt P29990)	pIC50	< 4.00
O=C(O)CCCc1ccc(NC(=O)c2cc(Cl)cc(NC(=O)OCc3ccccc3)c2)cc1	Genome polyprotein (dengue virus type 2, UniProt P29990)	pIC50	4.36
CC(C)(C)c1ncc(-c2ccc([C@@H](NC(=O)OCc3ccccc3)C(=O)Nc3cccc(CN)c3)cc2)o1	Genome polyprotein (dengue virus type 2, UniProt P29990)	pIC50	< 4.00
COC(=O)[C@]12CC[C@](C(=O)Nc3cccc(CN)c3)(COC1)C2	Genome polyprotein (dengue virus type 2, UniProt P29990)	pIC50	< 4.00
CNC(=O)[C@]1(Nc2ccc3c(c2)CNC3)C(=O)Nc2ccc(Cl)cc21	Genome polyprotein (dengue virus type 2, UniProt P29990)	pIC50	< 4.00

* * *

# measured-target: Genome polyprotein (dengue virus type 2)
# Assay type: functional, Thailand/16681/1984
Known IC50 of a selection of molecules

line-notation	measured-target	IC50
NCc1cccc(NC(=O)[C@@H]2CCC[C@]3(CCNC3=O)C2)c1	Genome polyprotein (dengue virus type 2)	> 100 µM
CNC(=O)[C@]1(Nc2ccc3c(c2)CNC3)C(=O)Nc2ccc(Cl)cc21	Genome polyprotein (dengue virus type 2)	> 100 µM
OCC#C[C@H](Nc1ccc(-c2nnn[nH]2)cc1)c1cc(Cl)cc(C2CC2)c1	Genome polyprotein (dengue virus type 2)	40.8 µM
C[C@H](NC(=O)c1cc(Cl)cc2[nH]ncc12)c1ccc2c(c1)CNC2	Genome polyprotein (dengue virus type 2)	> 100 µM
O=C(Nc1ccc2c(c1)CNC2)c1n[nH]c2ncc(Br)cc12	Genome polyprotein (dengue virus type 2)	> 100 µM
CCn1c(=O)c(N2CC[C@H](CO)C2)nc2cc(C(N)=O)ccc21	Genome polyprotein (dengue virus type 2)	> 100 µM
NCc1cccc(NC(=O)[C@H]2CCc3nnc(-c4ccc(F)cc4)n3C2)c1	Genome polyprotein (dengue virus type 2)	> 100 µM
Cc1c(C(=O)Nc2ccc3c(c2)CN(C)C3=O)cc(C2CC2)n1C	Genome polyprotein (dengue virus type 2)	> 100 µM
O=C1Cc2c(cccc2C(=O)NC2CCC3(CC2)COC3)N1	Genome polyprotein (dengue virus type 2)	> 100 µM
O=C1Cc2c(cccc2C(=O)Nc2ccc3c(c2)CNCCC3)N1	Genome polyprotein (dengue virus type 2)	90.1 µM
NCc1cccc([C@H]2C[C@@H]2c2cc(Cl)cc(NC(=O)OCc3ccccc3)c2)c1	Genome polyprotein (dengue virus type 2)	> 100 µM
Cc1noc(C)c1Cc1ccc(C(=O)Nc2cccc(CN)c2)o1	Genome polyprotein (dengue virus type 2)	> 100 µM
Cn1ccc(-c2cc(CN)cc([C@@H]3C[C@H]3c3cc(Cl)cc(NC(=O)OCc4ccccc4)c3)c2)n1	Genome polyprotein (dengue virus type 2)	> 100 µM
CNC(=O)[C@H](Nc1cccc(-c2nnn[nH]2)c1)c1cc(Cl)cc(C2CC2)c1	Genome polyprotein (dengue virus type 2)	> 100 µM
O=C(Nc1cc(Cl)cc(C(=O)N[C@H]2CCCC[C@@H]2C(=O)O)c1)OCc1ccccc1	Genome polyprotein (dengue virus type 2)	> 100 µM
O=C(Nc1ccc2c(c1)CNC2)c1cccc2sccc12	Genome polyprotein (dengue virus type 2)	> 100 µM
CCn1c(=O)c(N2CC[C@H](CO)C2)nc2cc(C(=O)NCc3ccccc3)ccc21	Genome polyprotein (dengue virus type 2)	> 100 µM
O=C(O)Cc1cccc(NC(=O)c2cc(Cl)cc(NC(=O)OCc3ccccc3)c2)c1	Genome polyprotein (dengue virus type 2)	40 µM
N#C[C@H](Nc1ccc2c(c1)CNC2)c1cc(Cl)cc(C2CC2)c1	Genome polyprotein (dengue virus type 2)	> 100 µM
Cc1ccc(NC(=O)c2cc(C3CC3)n(C)c2C)cc1CN	Genome polyprotein (dengue virus type 2)	> 100 µM
COC(=O)c1cc(Cl)cc(S(=O)(=O)Nc2cccc(-c3nnn[nH]3)c2)c1F	Genome polyprotein (dengue virus type 2)	> 100 µM
Cc1ccc(NS(=O)(=O)c2ccc(Oc3ccccc3Cl)cc2)cc1CN	Genome polyprotein (dengue virus type 2)	> 100 µM
O=C(Nc1ccc2c(c1)CNC2)c1c(Cl)ccc2c1OCO2	Genome polyprotein (dengue virus type 2)	> 100 µM
CCNC(=O)c1ccnc(NC(=O)c2cc(C3CC3)n(C)c2C)c1	Genome polyprotein (dengue virus type 2)	> 100 µM
O=C(O)c1cc2cc(-c3cc(Cl)cc4ncccc34)ccc2[nH]1	Genome polyprotein (dengue virus type 2)	50.9 µM
O=C(Nc1cc(Cl)cc(C(=O)Nc2cccc([C@H]3CCCCN3)c2)c1)OCc1ccccc1	Genome polyprotein (dengue virus type 2)	> 100 µM
O=C(Nc1cc(Cl)cc(C(=O)Nc2ccc(CCN3CCOCC3)cc2)c1)OCc1ccccc1	Genome polyprotein (dengue virus type 2)	> 100 µM
NCc1cccc(NC(=O)[C@@H](NC(=O)OCc2ccccc2)c2ccc(OCC3CCOCC3)cc2)c1	Genome polyprotein (dengue virus type 2)	> 100 µM
c1ccc(-c2[nH]c3ccccc3c2CN2CCC(c3cscn3)CC2)cc1	Genome polyprotein (dengue virus type 2)	> 100 µM
N#CCOc1ccc(Br)cc1[C@H](Nc1ccc2c(c1)CNC2)C(=O)NCC(F)F	Genome polyprotein (dengue virus type 2)	> 100 µM
NCc1cccc(NC(=O)c2cncc(Cl)c2)c1	Genome polyprotein (dengue virus type 2)	> 100 µM
O=C(Nc1ccc2c(c1)CNC2)c1cccc(O)c1	Genome polyprotein (dengue virus type 2)	> 100 µM
Cc1cc(CC(=O)O)ccc1Cc1c[nH]c2ccc(Cl)cc12	Genome polyprotein (dengue virus type 2)	> 100 µM
O=C(Nc1ccc2c(c1)CNC2)c1cc(Cl)cc2nccnc12	Genome polyprotein (dengue virus type 2)	77.9 µM
O=C(NCC(F)F)[C@H](Nc1ccc2c(c1)CNC2)c1cc(Br)cc2nc[nH]c12	Genome polyprotein (dengue virus type 2)	> 100 µM
O=C(Nc1ccc2c(c1)CCNCC2)c1cc(Cl)cc2[nH]ncc12	Genome polyprotein (dengue virus type 2)	> 100 µM
C[C@H]1Oc2c(cccc2C(=O)Nc2ccc3c(c2)CNC3)NC1=O	Genome polyprotein (dengue virus type 2)	90.4 µM
O=C(Nc1ccc2c(c1)CNC2)c1ccc2nc(O)sc2c1	Genome polyprotein (dengue virus type 2)	> 100 µM
Cc1c(C(=O)Nc2cc(C(=O)N3CCNC(=O)C3)ccn2)cc(C2CC2)n1C	Genome polyprotein (dengue virus type 2)	> 100 µM
O=C(Nc1cc(Cl)cc(C(=O)N2CCC[C@H](c3nnn[nH]3)C2)c1)OCc1ccccc1	Genome polyprotein (dengue virus type 2)	> 100 µM
O=C(Nc1ccc2c(c1)CNC2)c1cc(Br)cc2cccnc12	Genome polyprotein (dengue virus type 2)	> 100 µM
CNC(=O)[C@H](Nc1ccc(-c2nn[nH]n2)cc1)c1cc(Cl)cc(NC(=O)OCc2ccccc2)c1	Genome polyprotein (dengue virus type 2)	40.7 µM
